Give Emax for every item shown.
tested_system: dopamine transporter (DAT) (Rattus norvegicus (Rat))
experimental_details: [3H]dopamine (DA) uptake inhibition in rat brain (caudate) synaptosomes
Format: biochemical
experimental_context: mean ± S.D.; n = 3; read-out: DAT Uptake Emax
Numbers only, in %.

compound	tested_system	units_label	Emax
Cn1cc2cc(-c3nc(NCC(c4ccccc4)c4ccccc4)c4ccccc4n3)ccc2n1 [SRI-29776]	dopamine transporter (DAT) (Rattus norvegicus (Rat))	%	69

Below are 3 compounds. Give each one its Emax.
1. c1ccc(C(CNc2nc(-c3ccc4nccn4c3)nc3ccccc23)c2ccccc2)cc1 [SRI-29574]
2. c1ccc(C(CNc2nc(-c3ccc4ncnn4c3)nc3ccccc23)c2ccccc2)cc1 [SRI-30522]
3. Cc1cc(NS(C)(=O)=O)ccc1-c1nc(NCC(c2ccccc2)c2ccncc2)c2ccccc2n1 (stereo not shown) [Compound 29]

Ans.
[68, 63, 74]

* * *

Please provide measured DA Uptake Emax for the entries that follow.
tested_system: dopamine transporter (DAT) (Rattus norvegicus (Rat), UniProt P23977)
Sequence (P23977 whole entry): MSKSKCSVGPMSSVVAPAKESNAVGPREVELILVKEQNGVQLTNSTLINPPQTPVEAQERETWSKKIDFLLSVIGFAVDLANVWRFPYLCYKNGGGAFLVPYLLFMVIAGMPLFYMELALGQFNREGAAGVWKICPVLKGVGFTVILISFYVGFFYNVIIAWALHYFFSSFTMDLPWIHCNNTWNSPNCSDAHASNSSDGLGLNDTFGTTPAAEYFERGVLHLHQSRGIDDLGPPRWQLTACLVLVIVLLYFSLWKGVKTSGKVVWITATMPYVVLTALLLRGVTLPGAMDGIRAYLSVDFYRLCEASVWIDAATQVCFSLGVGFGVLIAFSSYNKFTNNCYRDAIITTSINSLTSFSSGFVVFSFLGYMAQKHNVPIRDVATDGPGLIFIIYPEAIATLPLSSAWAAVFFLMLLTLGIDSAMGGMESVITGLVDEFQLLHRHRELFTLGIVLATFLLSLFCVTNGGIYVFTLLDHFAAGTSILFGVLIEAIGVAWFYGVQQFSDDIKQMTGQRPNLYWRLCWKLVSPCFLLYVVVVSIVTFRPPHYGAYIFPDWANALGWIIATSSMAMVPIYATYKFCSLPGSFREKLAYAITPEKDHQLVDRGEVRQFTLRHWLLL
experimental_details: [3H]dopamine (DA) uptake inhibition in rat brain (caudate) synaptosomes
Format: biochemical
experimental_context: rat caudate synaptosomes, 5 nM [3H]dopamine, mean ± SD
Give bare numbers, in % I.

As a guide, the following entries are already answered.
compound	units_label	DA Uptake Emax
CS(=O)(=O)Nc1ccc(-c2nc(NCC(c3ccccc3)c3cccnc3)c3ccccc3n2)cc1 (centres unmarked)	% I	73
CN(C)c1ccc(-c2nc(NCC(Oc3ccccc3)c3ccccc3)c3ccccc3n2)cc1 (centres unmarked)	% I	72
CS(=O)(=O)Nc1ccc(-c2nc(NCCc3ccccc3)c3ccccc3n2)cc1	% I	86
CN(C)c1ccc(-c2nc(NCC(Cc3ccccc3)c3ccccc3)c3ccccc3n2)cc1 (centres unmarked)	% I	78
CN(C)c1ccc(-c2nc(NCC(c3ccccc3)c3ccc[nH]3)c3ccccc3n2)cc1 (centres unmarked)	% I	77

Hi! Can you tell me DA Uptake Emax for each of these compounds?
1. CN(C)c1ccc(-c2nc(NCC(c3ccccc3)n3ccnc3)c3ccccc3n2)cc1 (centres unmarked)
2. CS(=O)(=O)Nc1ccc(-c2nc(NCC(c3ccccc3)c3ncccn3)c3ccccc3n2)cc1 (centres unmarked)
3. CN(C)c1ccc(-c2nc(NCC(c3ccccc3)c3ccncc3)c3ccccc3n2)cc1 (centres unmarked)

Ans.
[86, 88, 77]

* * *

For each record, write down the corresponding IC50.
tested_system: serotonin transporter (SERT) (Rattus norvegicus (Rat))
experimental_details: [3H]serotonin (5-HT) uptake inhibition in rat brain synaptosomes
experimental_context: mean ± S.D.; n = 3
Answers are plain numbers, in nM.

Answered cases to consult:
compound_smiles	units_label	IC50
c1ccc(C(CNc2nc(-c3cccnc3)nc3ccccc23)c2ccccc2)cc1	nM	6380
CN(C)c1ncc(-c2nc(NCCC(c3ccccc3)c3ccccc3)c3ccccc3n2)cn1	nM	3800
c1ccc(C(CCNc2nc(-c3cccnc3)nc3ccccc23)c2ccccc2)cc1	nM	699

Note: attention shifts to another entry.
Qu. I have this compound here, c1ccc(C(CCNc2nc(-c3ccc4[nH]ccc4c3)nc3ccccc23)c2ccccc2)cc1 , and I need its recorded IC50.
Ans. 89

* * *

tested_system: dopamine transporter (DAT) (Rattus norvegicus (Rat), UniProt P23977)
experimental_details: Dopamine transporter-mediated [3H]MPP+ release (d-amphetamine-induced, shift experiments) in rat caudate synaptosomes
Format: biochemical
experimental_context: [3H]MPP+ release; [Blocker]/((EC50-2/EC50-1) − 1)
Give measured Apparent Kc for each item. Keep answers brief.
Numbers only, in nM.

Worked examples, 4 compounds total:
compound	units_label	Apparent Kc
Cc1cc2nccn2cc1-c1nc(NCC(O)(c2ccccc2)c2ccccc2)c2ccccc2n1 [SRI-31143]	nM	46
Cc1cc2nccn2cc1-c1nc(NCC(c2ccccc2)c2ccncc2)c2ccccc2n1 (stereo not drawn) [SRI-31142]	nM	400
CN(C)c1ccc(-c2nc(NCC(c3ccccc3)c3ccccc3)c3ccccc3n2)cn1 [SRI-29779]	nM	912
Cc1cc2nccn2cc1-c1nc(NCC(c2ccccc2)c2ccc[nH]2)c2ccccc2n1 (stereo not drawn) [SRI-31040]	nM	55

Need Apparent Kc for each of these compounds.
1. c1ccc(C(CNc2nc(-c3ccc4nccn4c3)nc3ccccc23)c2ccccc2)cc1 [SRI-29574]
2. c1ccc(C(CNc2nc(-c3ccc4[nH]ccc4c3)nc3ccccc23)c2ccccc2)cc1 [SRI-29155]
3. c1ccc(C(CNc2nc(-c3cnc4nccn4c3)nc3ccccc23)C2CCCCC2)cc1 (stereo not drawn) [SRI-30517]
4. Cl.Fc1ccc2c(NCC(c3ccccc3)c3ccccc3)nc(-c3ccc4nccn4c3)nc2c1 [SRI-31034]
5. c1ccc(C(CNc2nc(-c3cccnc3)nc3ccccc23)c2ccccc2)cc1 [SRI-29072]

Ans.
1. -368
2. 456
3. 1600
4. 3200
5. 25830

* * *

tested_system: DAT (Rattus norvegicus (Rat), UniProt P23977)
Sequence (P23977 whole entry): as above
experimental_details: Inhibition of [3H]WIN35428 binding to rat caudate DAT
experimental_context: [3H]WIN35428; mean ± S.D.; n = 3
Can you tell me Emax for the items I'm about to list?
Enter the number, and then the unit.

compound	measurement
CN(C)c1ccc(-c2nc(NCC(c3ccccc3)c3ccccc3)c3ccccc3n2)cn1	83%
Cc1cc(NS(C)(=O)=O)ccc1-c1nc(NCC(c2ccccc2)c2ccccc2)c2ccccc2n1	60%
OC(CNc1nc(-c2cnc3nccn3c2)nc2ccccc12)(c1ccccc1)c1ccccc1	34%
c1ccc(C(CNc2nc(-c3cccnc3)nc3ccccc23)c2ccccc2)cc1	77%

# input for lookup
Qu. Field request: Emax | item: c1ccc(C(CNc2nc(-c3ccc4nccn4c3)nc3ccccc23)C2CCCCC2)cc1 (centres unmarked)
Ans. 50%

* * *

tested_system: UniProt:P23977
experimental_details: [3H]dopamine (DA) uptake inhibition in rat brain (caudate) synaptosomes
experimental_context: rat caudate synaptosomes, 5 nM [3H]dopamine, mean ± SD
Protocol: Uptake inhibition assay for the dopamine transporter was conducted in rat brain synaptosomes as described elsewhere with minor modifications (Rothman et al., Synapse 39, 32-41 (2001)). Freshly removed caudate was homogenized in 10% ice-cold sucrose with 12 strokes of a hand-held Potter-Elvehjem homogenizer followed by centrifugation at 1000×g for 10 min. […] Transporter activity was assessed using 5 nM [^3H]dopamine. […] Nonspecific uptake was measured by incubating in the presence of 10 μM indatraline. […]
Hi there, I'd appreciate the recorded pEC50 for every entry that follows.
One number for each entry, as −log10 of the molar value.

compound	pEC50
CN1CCN(C(CNc2nc(-c3ccc(N(C)C)cc3)nc3ccccc23)c2ccccc2)CC1 (centres unmarked)	7.52
CN(C)c1ccc(-c2nc(NCC(c3ccccc3)c3ccncc3)c3ccccc3n2)cc1 (centres unmarked)	7.89
CN(C)c1ccc(-c2nc(NCC(c3ccccc3)N3CCOCC3)c3ccccc3n2)cc1 (centres unmarked)	7.82
CN(C)c1ccc(-c2nc(NCC(c3ccccc3)c3cccnc3)c3ccccc3n2)cc1 (centres unmarked)	7.62

Look up pEC50 for the entries below, preserving their order.
1. CN(C)c1ccc(-c2nc(NCC(c3ccccc3)n3ccnc3)c3ccccc3n2)cc1 (centres unmarked)
2. CS(=O)(=O)Nc1ccc(-c2nc(NCC(c3ccccc3)n3ccnc3)c3ccccc3n2)cc1 (centres unmarked)
3. CN(C)c1ccc(-c2nc(NCC(c3ccccn3)c3ccc[nH]3)c3ccccc3n2)cc1 (centres unmarked)
4. CN(C)c1ccc(-c2nc(NC(Cc3ccccc3)c3ccccc3)c3ccccc3n2)cc1 (centres unmarked)
5. Cc1cc(N(C)C)ccc1-c1nc(NCC(c2ccccc2)c2ccc(CO)[nH]2)c2ccccc2n1 (centres unmarked)
6. CC(C)C(CNc1nc(-c2ccc(N(C)C)cc2)nc2ccccc12)c1ccccc1 (centres unmarked)
7. CCN(CC)C(=O)[C@]1(c2ccccc2)C[C@@H]1CNc1nc(-c2ccc(N(C)C)cc2)nc2ccccc12

Ans.
1. 6.86
2. 7.00
3. 7.19
4. 7.40
5. 7.74
6. 7.52
7. 6.61

The following compounds each have a reported value; give each one's pEC50.
1. CS(=O)(=O)Nc1ccc(-c2nc(NCC(c3ccccc3)N3CCOCC3)c3ccccc3n2)cc1 (centres unmarked)
2. CS(=O)(=O)Nc1ccc(-c2nc(NCC(c3ccccc3)c3cccnc3)c3ccccc3n2)cc1 (centres unmarked)
3. CN(C)c1ccc(-c2nc(NCC(c3ccccc3)N3CCCCC3)c3ccccc3n2)cc1 (centres unmarked)
4. CS(=O)(=O)Nc1ccc(-c2nc(NCC(c3ccccc3)N3CCCC3)c3ccccc3n2)cc1 (centres unmarked)
5. CN(C)c1ccc(-c2nc(NCC(c3ccncc3)c3ccncc3)c3ccccc3n2)cc1
6. CN(C)c1ccc(-c2nc(NCC(c3ccccc3)c3ncccn3)c3ccccc3n2)cc1 (centres unmarked)
7. CN(C)c1ccc(-c2nc(NCC(c3ccccc3)C3CCCCC3)c3ccccc3n2)cc1 (centres unmarked)

Ans.
1. 7.37
2. 7.60
3. 7.47
4. 6.80
5. 7.68
6. 6.93
7. 7.34

* * *

tested_system: dopamine transporter (DAT) (Rattus norvegicus (Rat))
experimental_details: Dopamine transporter-mediated [3H]MPP+ release (d-amphetamine-induced, shift experiments) in rat caudate synaptosomes
Assay type: biochemical
experimental_context: read-out: d-Amphetamine Emax in presence of blocker; [3H]MPP+ release; blocker concentration per row; mean ± S.D.; n = 3
Task for the reader: assign each of the following compounds its reported Emax.
One number for each entry, in %.

Here's what some known entries look like.
compound	Emax [%]
c1ccc(C(CCNc2nc(-c3ccc4[nH]ccc4c3)nc3ccccc23)c2ccccc2)cc1 [SRI-29213]	78
c1ccc(C(CNc2nc(-c3cnc4nccn4c3)nc3ccccc23)c2ccncc2)cc1 (stereo not shown) [SRI-30810]	104
c1ccc(C(CNc2nc(-c3cccnc3)nc3ccccc23)c2ccccc2)cc1 [SRI-29072]	96

Then this compound:
Qu. Form entry - test system: dopamine transporter (DAT) (Rattus norvegicus (Rat)); read-out: Emax; compound: c1ccc(C(CNc2nc(-c3cnc4nccn4c3)nc3ccccc23)c2ccccc2)cc1 [SRI-29991]
Ans. 102
